Subject of test: M2 muscarinic receptor (Homo sapiens)
Sequence (P08172 1-466): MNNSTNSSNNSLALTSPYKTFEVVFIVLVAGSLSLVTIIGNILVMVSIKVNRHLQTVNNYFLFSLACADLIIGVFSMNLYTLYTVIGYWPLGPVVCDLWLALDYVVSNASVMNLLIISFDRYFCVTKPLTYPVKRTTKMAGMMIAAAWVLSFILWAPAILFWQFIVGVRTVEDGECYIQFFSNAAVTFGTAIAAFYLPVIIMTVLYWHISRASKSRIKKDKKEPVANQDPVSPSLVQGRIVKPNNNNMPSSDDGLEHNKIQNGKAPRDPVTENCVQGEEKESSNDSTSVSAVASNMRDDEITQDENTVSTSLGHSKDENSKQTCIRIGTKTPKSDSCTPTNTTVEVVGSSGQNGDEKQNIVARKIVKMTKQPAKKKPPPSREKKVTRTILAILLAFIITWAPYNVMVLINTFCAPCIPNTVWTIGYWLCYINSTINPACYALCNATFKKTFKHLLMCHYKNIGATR
Experiment notes: R-SAT functional receptor assay, M2
Measurement kind: EC50 (nM)
Note: unit nM is implicit; provide only the numeric part.

Please report the recorded EC50 for Clc1ccc2c(c1)N=C(N1CCNCC1)c1ccccc1N2 .
182

Attribution: patent US20040224942A1
